B1: CPEB3 Ribozyme (parent)
chain: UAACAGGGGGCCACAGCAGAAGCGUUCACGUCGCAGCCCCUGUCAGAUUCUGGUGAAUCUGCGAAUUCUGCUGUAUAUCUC

Variants of: B1
Assay: self-cleavage, relative activity (ratio to wild type); higher = more cleavage; in vitro, sequencing
The variants listed here are annotated with their self-cleavage.

{"columns": ["MUT", "self-cleavage"],
 "data": [
  ["U60G U74A", 0.82],
  ["C4A G33U", 0.12],
  ["G36U A47U", 0.08],
  ["A45U A57G", 0.31],
  ["A28U G33A", 0.2],
  ["C44A A64C", 0.18],
  ["A28C G70A", 0.27],
  ["A47C U80C", 0.43],
  ["G8A U78C", 0.35],
  ["A13G C14U", 0.78],
  ["A21G U66C", 1.05],
  ["C11G A13G", 0.32],
  ["C11U U48C", 0.31],
  ["G7U A64G", 0.14],
  ["G10C C12A", 0.44],
  ["U25A A77C", 0.19],
  ["G19A G42A", 0.15],
  ["A45C A64U", 0],
  ["U49C U72G", 0.26],
  ["U48C A77U", 0.65],
  ["A5C U69G", 0.67],
  ["C23G A47G", 0.28],
  ["C29A U74A", 0.62],
  ["C39U C62A", 0.35],
  ["G16C A56G", 0.21],
  ["U1A A15U", 0.69],
  ["A57G C81G", 1.2],
  ["C62U C71A", 0.26],
  ["A35U G46A", 0.16],
  ["G33A U43G", 0.34],
  ["U48C A65C", 0.21],
  ["A5G U51A", 0.63],
  ["A13G C71A", 0.25],
  ["C37G U72C", 1.14],
  ["A20U U69G", 0.21],
  ["C12A A20U", 0.32],
  ["U26C A45U", 0.26],
  ["C39G A64C", 0.17],
  ["A28G C44A", 0.12],
  ["C37G A57G", 0.44],
  ["A15G U67C", 0.24],
  ["G9A", 0.29],
  ["U1C A28G", 0.55],
  ["G36U U76A", 0.2],
  ["G30C U78G", 0.2],
  ["G10C G24U", 0.15],
  ["G10U A13U", 0.1],
  ["A15U U25G", 0.46],
  ["U41C G73U", 1.28],
  ["A20G U58C", 0.36],
  ["C12U U43C", 1.11],
  ["U1C U43C", 0.57],
  ["A2U A65U", 0.29],
  ["A28U C59U", 0.34],
  ["U51G U54G", 0.24],
  ["U60C A77G", 0.51],
  ["U69A A75G", 0.53],
  ["G7U A45C", 0.2],
  ["C59A U67C", 0.16],
  ["U31G C79A", 0.56],
  ["A3G A13G", 0.95],
  ["U67A U69C", 0.4],
  ["C62A A65G", 0.36],
  ["A21G C40U", 0.46],
  ["G7U U72C", 0.25],
  ["A15G C23A", 0.19],
  ["U67G U80C", 0.34],
  ["U67C U76A", 0.3],
  ["A20U A77U", 0.28],
  ["G19U U69C", 0.09],
  ["C71A U80C", 0.63],
  ["G30C U72G", 0.16],
  ["G53C U67G", 0.54],
  ["C11U U78C", 0.33],
  ["G10A A77G", 0.08],
  ["C23G U74A", 0.28],
  ["C11U U76C", 0.43],
  ["U51G G63A", 0.98],
  ["C12A U26A", 1.08],
  ["G8C U60C", 0.24],
  ["G30C A75G", 0.12],
  ["C34U U60A", 0.14],
  ["C34U U43A", 0.51],
  ["U25C C81A", 0.23],
  ["A28C C71G", 0.08],
  ["A15U A56U", 0.47],
  ["G10A U41C", 0.31],
  ["A13C U51A", 1.01],
  ["A15U G33U", 0.52],
  ["U67C A75G", 0.35],
  ["U72A C79U", 0.68]
]}

Where do the numbers come from? From the RNAGym collection of RNA variant scans (doi:10.1093/nar/gkz1192).
